B1: TPR t1 (parent)
chain: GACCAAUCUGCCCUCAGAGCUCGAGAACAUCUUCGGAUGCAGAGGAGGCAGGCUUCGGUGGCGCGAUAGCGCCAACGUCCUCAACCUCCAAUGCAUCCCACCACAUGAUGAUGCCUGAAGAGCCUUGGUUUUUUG

Variants of: B1
protocol-details: polymerase ribozyme fitness, log enrichment relative to wild type (log ratio); higher = more active; in vitro selection for triplet polymerase activity
Would you mind labelling by polymerase ribozyme fitness (log ratio)? At or over -2 is Y, under is N.

G44A G52U G122A C123U C124G U130G	Y
C8G C89A C114U	Y
C72A A83U C123G U126A	Y
A50G U87G	Y
A27G A50U	N

Hello, I need to know if A6U G71C G120C C123G has measured polymerase ribozyme fitness (log ratio) not below -2. Thanks!
Y

Hello, I need to know if A6G C11G C70G A118U has measured polymerase ribozyme fitness (log ratio) not below -2. Thanks!
Y
